# System: HIV-1 nucleocapsid protein NCp7 (binding to TG oligonucleotide)
# Procedure text: HIV Nucleocapsid (AID 346);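 further: potency is for inhibitors that block NC binding and lower polarization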
# Condition details: HIV-1 NC / fluorescein-TGTGTGTG probe, fluorescence polarization
Active and inactive are the calls of the source. How the calls were made is not given here.
Give one outcome, nothing more. List: YES for active, NO for inactive

Input: Just curious, what result did `COc1ccc(-c2nc3cnc(Nc4ccccc4)nc3n(CCC#N)c2=O)cc1` get here?
Output: YES

Input: Just curious, what result did `COc1ccc(Oc2ncc3nc(-c4ccc(F)cc4)c(=O)n(CCC#N)c3n2)cc1` get here?
Output: NO

Input: Just curious, what result did `Cc1cccc(CNc2nc(-c3c(C)noc3C)nc3ccccc23)c1` get here?
Output: NO

The origin of these recorded values is PubChem BioAssay (NCATS).
